- Assay system: rabbit reticulocyte 15-LO (Oryctolagus cuniculus, UniProt P12530)
- Construct: rabbit reticulocyte 15-LO; from tissue; host or cells: rabbit reticulocytes
- Measurement description: 15-Lipoxygenase Assay: inhibition of 15-LO with linoleic acid as substrate, HPLC method of Auerbach et al.
- Assay type: biochemical
- Condition notes: HPLC method; incubation at 4° C. for 10 minutes; read-out: concentration of compounds required to inhibit 50% of the activity of 15-LO (IC50)
pIC50: −log10 of the molar value.
Reported property: pIC50

The examples below pair each entry with its known result.
COc1ccccc1-c1csc(-c2nc3ccccc3[nH]2)n1 = 6.90
Brc1ccc(-c2csc(-c3nc4ccccc4[nH]3)n2)cc1 = 6.34
c1ccc(-c2csc(-c3nc4ccccc4[nH]3)n2)nc1 = 6.44
c1ccc(-c2csc(-c3nc4ccccc4[nH]3)n2)cc1 = 6.94
Fc1ccc(-c2csc(-c3nc4ccccc4[nH]3)n2)cc1 = 6.72

[a] Brc1sc(-c2nc3ccccc3[nH]2)nc1-c1ccccc1
[b] Clc1ccc(Cl)c(-c2csc(-c3nc4ccccc4[nH]3)n2)c1
[c] COc1ccc(-c2csc(-c3nc4ccccc4[nH]3)n2)cc1
[d] c1csc(-c2csc(-c3nc4ccccc4[nH]3)n2)c1
query: Given 4 compounds, produce a descending ranking by pIC50. Sort the labels as requested; that list is your answer.
result: d, b, a, c

[P] COc1cccc(-c2csc(-c3nc4ccccc4[nH]3)n2)c1
[Q] Clc1cccc(-c2csc(-c3nc4ccccc4[nH]3)n2)c1
query: Larger number for pIC50: P , or Q ? Your choice should be expressed through its label.
result: Q
(Q: 6.70, P: 6.30)

[1] COc1ccc(OC)c(-c2csc(-c3nc4ccccc4[nH]3)n2)c1
[2] Clc1ccc(-c2csc(-c3nc4ccccc4[nH]3)n2)cc1
query: Which record would sort first by descending pIC50, 1 or 2 ? Reply with the label of the item you choose.
result: 1

###

- Assay system: rabbit reticulocyte 15-LO (Oryctolagus cuniculus)
- Construct: rabbit reticulocyte 15-LO; from tissue; host or cells: rabbit reticulocytes
- Measurement description: 15-Lipoxygenase Assay: inhibition of 15-LO with linoleic acid as substrate, HPLC method of Auerbach et al.
- Type: biochemical
- Condition notes: read-out: 15-LO inhibitory activity, % @ 10 μM
Reported property: inhibition at 10 µM (%)

Consider the following illustrative entries.
O=C(Nc1sc(-c2nc3ccccc3[nH]2)nc1-c1ccccc1)OCc1ccccc1 = 89.2
Oc1ccc(Br)cc1-c1csc(-c2nc3ccccc3[nH]2)n1 = 91.3
CCOC(=O)c1csc(-c2nc3ccccc3[nH]2)n1 = 25

[1] O=C(Nc1ccccc1)c1csc(-c2nc3ccccc3[nH]2)n1
[2] Cc1ccc(-c2csc(-c3nc4ccccc4[nH]3)n2)cc1
query: I'd appreciate it if you could identify which of 1 and 2 has the greater inhibition at 10 µM. State the label of the item chosen.
result: 2
(2: 71.6%, 1: 25.1%)

###

- Assay system: rabbit reticulocyte 15-LO (Oryctolagus cuniculus, UniProt P12530)
- Construct: rabbit reticulocyte 15-LO; from tissue; host or cells: rabbit reticulocytes
- Sequence (P12530 1-663): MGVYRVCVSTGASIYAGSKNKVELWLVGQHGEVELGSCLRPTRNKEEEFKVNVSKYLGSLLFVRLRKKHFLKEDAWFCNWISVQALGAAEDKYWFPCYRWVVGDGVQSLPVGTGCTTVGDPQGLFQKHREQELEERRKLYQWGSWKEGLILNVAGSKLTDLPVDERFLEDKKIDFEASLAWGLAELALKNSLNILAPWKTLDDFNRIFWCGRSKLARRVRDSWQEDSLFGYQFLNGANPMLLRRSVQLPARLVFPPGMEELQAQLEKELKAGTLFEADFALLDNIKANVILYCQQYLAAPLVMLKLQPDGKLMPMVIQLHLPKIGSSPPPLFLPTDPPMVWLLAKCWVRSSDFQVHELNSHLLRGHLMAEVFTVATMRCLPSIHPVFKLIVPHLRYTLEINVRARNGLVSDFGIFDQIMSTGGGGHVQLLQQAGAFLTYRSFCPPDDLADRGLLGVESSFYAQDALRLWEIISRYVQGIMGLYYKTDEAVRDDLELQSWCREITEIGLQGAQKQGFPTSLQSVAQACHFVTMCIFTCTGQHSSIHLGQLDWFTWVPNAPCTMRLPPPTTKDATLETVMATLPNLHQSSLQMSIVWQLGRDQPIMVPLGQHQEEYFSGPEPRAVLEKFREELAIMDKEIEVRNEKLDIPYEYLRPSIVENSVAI
- Measurement description: 15-Lipoxygenase Assay: inhibition of 15-LO with linoleic acid as substrate, HPLC method of Auerbach et al.
- Assay type: biochemical
- Condition notes: marked (P), not explained; read-out: IC50 (P)
pIC50: −log10 of the molar value.
Reported property: pIC50

[P] c1ccc2[nH]c(-c3nc(-c4ccncc4)cs3)nc2c1 [Example 37]
[Q] Oc1ccccc1-c1csc(-c2nc3ccccc3[nH]2)n1 [Example 17]
query: Name the one with the greater pIC50 value, either P or Q as given. Indicate your choice by writing its label.
result: Q
(Q: 7.40, P: 6.27)

###

- Assay system: rabbit reticulocyte 15-LO (Oryctolagus cuniculus)
- Construct: rabbit reticulocyte 15-LO; from tissue; host or cells: rabbit reticulocytes
- Sequence (P12530 1-663): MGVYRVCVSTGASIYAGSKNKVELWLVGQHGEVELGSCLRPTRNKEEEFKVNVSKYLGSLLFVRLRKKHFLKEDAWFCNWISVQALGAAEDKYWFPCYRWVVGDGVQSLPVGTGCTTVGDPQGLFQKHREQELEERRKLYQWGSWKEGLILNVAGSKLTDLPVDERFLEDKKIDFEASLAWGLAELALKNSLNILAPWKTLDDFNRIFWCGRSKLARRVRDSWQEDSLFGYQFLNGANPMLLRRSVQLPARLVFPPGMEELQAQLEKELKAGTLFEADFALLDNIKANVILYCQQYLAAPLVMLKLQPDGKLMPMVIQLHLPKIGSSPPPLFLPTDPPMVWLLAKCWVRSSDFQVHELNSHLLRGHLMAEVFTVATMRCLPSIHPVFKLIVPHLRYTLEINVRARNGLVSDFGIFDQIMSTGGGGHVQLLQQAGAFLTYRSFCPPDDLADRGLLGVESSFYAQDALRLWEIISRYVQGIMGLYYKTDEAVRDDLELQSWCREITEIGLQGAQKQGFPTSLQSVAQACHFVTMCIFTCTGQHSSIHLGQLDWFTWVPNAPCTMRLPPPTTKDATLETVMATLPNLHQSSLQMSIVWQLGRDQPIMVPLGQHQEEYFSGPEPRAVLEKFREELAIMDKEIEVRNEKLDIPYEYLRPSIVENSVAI
- Measurement description: 15-Lipoxygenase Assay: inhibition of 15-LO with linoleic acid as substrate, HPLC method of Auerbach et al.
- Type: biochemical
- Condition notes: HPLC method; incubation at 4° C. for 10 minutes; read-out: concentration of compounds required to inhibit 50% of the activity of 15-LO (IC50)
pIC50: −log10 of the molar value.
The compounds listed here are annotated with their pIC50.

query: Param item = `COc1cccc(OC)c1-c1csc(-c2nc3ccccc3[nH]2)n1` ; retrieve measured pIC50.
result: < 5.00

query: Cool, now `Oc1ccc(-c2csc(-c3nc4ccccc4[nH]3)n2)cc1`
result: < 5.60

query: Queued: `c1ccc(-c2ccc(-c3csc(-c4nc5ccccc5[nH]4)n3)cc2)cc1`
result: < 5.00

###

- Assay system: rabbit reticulocyte 15-LO (Oryctolagus cuniculus)
- Construct: rabbit reticulocyte 15-LO; from tissue; host or cells: rabbit reticulocytes
- Measurement description: 15-Lipoxygenase Assay: inhibition of 15-LO with linoleic acid as substrate, HPLC method of Auerbach et al.
- Type: biochemical
- Condition notes: HPLC method; incubation at 4° C. for 10 minutes; read-out: concentration of compounds required to inhibit 50% of the activity of 15-LO (IC50)
pIC50: −log10 of the molar value.
Reported property: pIC50

Please review the entries below; each comes with its answer.
Cc1ccccc1-c1csc(-c2nc3ccccc3[nH]2)n1 = 6.48
O=C(NCCCN1CCCCC1)c1csc(-c2nc3ccccc3[nH]2)n1 = < 5.00
O=C1c2ccccc2C(=O)N1Cc1csc(-c2nc3ccccc3[nH]2)n1 = < 5.00
Oc1nc(-c2nc3ccccc3[nH]2)sc1-c1ccccc1 = < 5.00
Oc1ccc(-c2csc(-c3nc4ccccc4[nH]3)n2)cc1O = < 5.60

// next item, pIC50 requested
query: rabbit reticulocyte 15-LO (Oryctolagus cuniculus) / pIC50 / `O=C(O)c1sc(-c2nc3ccccc3[nH]2)nc1-c1ccccc1` : value?
result: < 5.00

Where do the numbers come from? From patent US5958950A.
